The values you see were collected from PubChem BioAssay.

Catalogue of compounds with associated viability
experiment: ovarian cancer cell viability with rucaparib, profiling panel, oncology-focused library, rucaparib conditional (AID 1508598); conditions: patient-derived ovarian cancer cells, CellTiter-Glo viability, 144 h; at 5 µM; OCI-P5x cells; without rucaparib; hits give low values
Measured attribute: viability (%)

{"columns": ["Compound", "Observed measurement"],
 "data": [
  ["O=S(=O)(CC1CS1)c1ccc(Oc2ccccc2)cc1 (stereo unspecified)", 81.4],
  ["Cc1c(N)nc([C@H](CC(N)=O)NC[C@@H](N)C(N)=O)nc1C(=O)N[C@H](C(=O)N[C@@H](C)[C@H](O)[C@@H](C)C(=O)N[C@@H](C(=O)NCCc1nc(-c2nc(C(=O)NCCC[S+](C)C)cs2)cs1)[C@@H](C)O)C(O[C@H]1O[C@H](CO)[C@H](O)[C@@H](O)[C@H]1O[C@H]1O[C@H](CO)[C@@H](O)[C@H](OC(N)=O)[C@@H]1O)c1cnc[nH]1 (stereo partly specified)", 21.3],
  ["Cn1cc(C2=C(c3cn(C4CCN(Cc5ccccn5)CC4)c4ccccc34)C(=O)NC2=O)c2ccccc21", 99.4],
  ["CC(C)[C@@]12O[C@@H]1[C@@H]1O[C@]13[C@]1(O[C@@H]1C[C@@H]1C4=C(CC[C@@]13C)C(=O)OC4)[C@@H]2O", 6.87],
  ["Cc1sc2c(c1C)C(c1ccc(Cl)cc1)=N[C@@H](CC(N)=O)c1nnc(C)n1-2", 56.3],
  ["C/C(=C\\c1csc(C)n1)[C@H]1C[C@@H]2O[C@@H]2CCC[C@H](C)[C@H](O)[C@@H](C)C(=O)C(C)(C)[C@H](O)CC(=O)O1", 17.3]
]}

###

test: liver-stage malaria parasite growth inhibition, primary screen, cell-based, HepG2, luciferase luminescence, HepG2 viability (AID 624349);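 further: 100% = mean of DMSO negative control wells on the same plate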; details: P. berghei liver stage in HepG2, luciferase luminescence, concentration not given here; hits give low values
Catalogue of compounds with associated parasite load remaining

{"columns": ["Compound", "parasite load remaining, %"],
 "data": [
  ["C[C@]12CCC3[C@@H](CC[C@@H]4C[C@H](O)CC[C@]34C)[C@@H]1CCC2=O (some centres not stated)", 68.6],
  ["COc1cc2c3cc1Oc1c(OC)c(OC)cc4c1[C@@H](Cc1cccc(c1)Oc1ccc(c(O)c1)C[C@@H]3N(C)CC2)N(C)CC4", 114],
  ["CCC1C(=O)OCC1Cc1cncn1C (configuration not stated)", 38.7],
  ["CC1=CC(=O)C2=C(C)C[C@H](O)[C@@H]3[C@H](OC(=O)[C@H]3C)[C@@H]12", 98.5],
  ["C[C@@H](N)[C@H](O)c1ccccc1", 62.7],
  ["O=C1NC(=O)c2c1c1c3ccccc3[nH]c1c1[nH]c3ccccc3c21", 79.1],
  ["CCC(COC(=O)c1cc(OC)c(OC)c(OC)c1)(c1ccccc1)N(C)C (configuration not stated)", 36],
  ["O=c1cccc2n1CC1CNC[C@@H]2C1", 70.3],
  ["CCn1cnc2c(Nc3cccc(Cl)c3)nc(N[C@@H]3CCCC[C@@H]3N)nc21", 33.4],
  ["C[C@]12CC(=CO)C(=O)C[C@@H]1CC[C@@H]1[C@@H]2CC[C@@]2(C)[C@H]1CC[C@]2(C)O", 62.4],
  ["CN1[C@@H]2CC(=O)C[C@H]1[C@H](O)C2", 87.8],
  ["CC[C@@]1(O)C[C@H](O[C@H]2C[C@H](N(C)C)[C@H](O)[C@H](C)O2)c2c(cc3c(c2O)C(=O)c2c(O)cccc2C3=O)[C@H]1C(=O)OC", 0.915],
  ["C[C@]12CCC(=O)C=C1CC[C@@H]1[C@@H]2C(=O)C[C@]2(C)C(=O)CC[C@@H]12", 81.1],
  ["O=C1OC2(c3cc(Br)c(O)cc3Oc3c2cc(Br)c(O)[c]3[Hg])c2ccccc21 (configuration not stated)", 65.8],
  ["COC(=O)N1CCN(C(=O)Cc2ccc(Cl)c(Cl)c2)C(CN2CCCC2)C1 (configuration not stated)", 76.7],
  ["Oc1ccc2c3c1O[C@H]1c4[nH]c5ccccc5c4C[C@@]4(O)[C@@H](C2)N(CC2CC2)CC[C@]314", 47.8],
  ["O=C1C=C2C=C[C@@H]3CC2(O1)[C@H]1CCCCN31", 0.53],
  ["O=C1CN=C(c2ccccc2Cl)c2cc([N+](=O)[O-])ccc2N1", 52.7],
  ["CCCC(C)C1(CC)C(=O)N=C(S)NC1=O (configuration not stated)", 29.3],
  ["CN1[C@@H]2CC[C@H]1CC(OC(=O)C1C=Nc3ccccc31)C2 (some centres not stated)", 130],
  ["O=C1Nc2ccc(Cl)cc2C(c2ccccc2Cl)=NC1O (configuration not stated)", 64.7],
  ["O=S(=O)(O)c1cc(O)ccc1O", 113],
  ["O=C1NCN(c2ccccc2)C12CCN(CC1COc3ccccc3O1)CC2 (configuration not stated)", 34.8],
  ["CO[C@H]1C=C2CCN(C)[C@H]2C2c3cc4c(cc3C(=O)O[C@@H]21)OCO4 (some centres not stated)", 64.2],
  ["O=C1CN=C(c2ccccc2)c2cc([N+](=O)[O-])ccc2N1", 89.5],
  ["C/C=C(\\C)C(=O)O[C@H]1C[C@@H](OC(C)=O)[C@@]2(C(=O)OC)CO[C@@H]3C2[C@]12CO[C@](O)(C(=O)OC)[C@H]2[C@](C)(C12O[C@@]1(C)[C@H]1C[C@@H]2OC2OC=C[C@@]21O)[C@@H]3O (some centres not stated)", 62.6],
  ["O=C1OCCN1N=Cc1ccc([N+](=O)[O-])o1", 34.2],
  ["N/C(=N\\[N+](=O)[O-])N/N=C\\c1ccc(-c2cccc([N+](=O)[O-])c2)o1", 33.3],
  ["COc1cc(OC)c(OC)cc1C=O", 70.8],
  ["C[C@@H]1CN(C2CCC(C#N)(c3ccc(F)cc3)CC2)CC[C@]1(C(=O)O)c1ccccc1 (some centres not stated)", 126],
  ["O=S(=O)(c1c(O)c(Cl)cc(Cl)c1Cl)c1c(O)c(Cl)cc(Cl)c1Cl", 27.4],
  ["O=C1C[C@@H]2OCC=C3CN4CC[C@]56c7ccccc7N1[C@H]5[C@H]2[C@H]3C[C@H]46", 96.5]
]}
